Tested on: NCI-H929 complex spheroids, viability % test/control
Experiment: Anticancer human tumor NCI-H929 cell line growth inhibition [RAS];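 further: compound exposure lasted seven days before viability was read; 100% = DMSO vehicle control viability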
Settings: second compound 0.3 µM; first compound 0.3 µM; stronger effect = lower value
Exercise: for every item that follows, state its recorded viability, T/C.
Report only the number, with the unit % understood.

Which viability, T/C value is on record for CC1(C)CCC(Nc2ncc(C(F)(F)F)c(-c3c[nH]c4c(P(C)(C)=O)c(C#N)ccc34)n2)CN1 (centres undefined) + CCn1c(-c2cc(N3CCN(C)CC3)cnc2C(C)OC)c2c3cc(ccc31)-c1csc(n1)CC(NC(=O)C1CC1C)C(=O)N1CCCC(N1)C(=O)OCC(C)(C)C2 ?
0.6

Lookup CC1(C)CCC(Nc2ncc(C(F)(F)F)c(-c3c[nH]c4c(P(C)(C)=O)c(C#N)ccc34)n2)CN1 (centres undefined) + CCn1c(-c2cccnc2C(C)OC)c2c3cc(ccc31)N1CCOC(CC(NC(=O)C(C(C)C)N(C)C(=O)C3(F)CCN(C(=O)C#CC(C)(C)N(C)C)CC3)C(=O)N3CCCC(N3)C(=O)OCC(C)(C)C2)C1
1.61

// query: CCc1c2c(nc3ccc(O)cc13)-c1cc3c(c(=O)n1C2)COC(=O)[C@]3(O)CC + CCn1c(-c2cccnc2C(C)OC)c2c3cc(ccc31)N1CCOC(CC(NC(=O)C(C(C)C)N(C)C(=O)C3(F)CCN(C(=O)C#CC(C)(C)N(C)C)CC3)C(=O)N3CCCC(N3)C(=O)OCC(C)(C)C2)C1
0.44

Then what about the compound CCc1c2c(nc3ccc(O)cc13)-c1cc3c(c(=O)n1C2)COC(=O)[C@]3(O)CC + CCn1c(-c2cc(N3CCN(C)CC3)cnc2C(C)OC)c2c3cc(ccc31)-c1csc(n1)CC(NC(=O)C1CC1C)C(=O)N1CCCC(N1)C(=O)OCC(C)(C)C2 ?
0.4

====

Hi there, I'd appreciate the recorded viability, T/C for every entry that follows.
Test system: NCI-H929 complex spheroids, viability % test/control
Test: Anticancer human tumor NCI-H929 cell line growth inhibition [RAS];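 further: compound exposure lasted seven days before viability was read; 100% = DMSO vehicle control viability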
Conditions: second compound 0.00949 µM; first compound 0.00316 µM; stronger effect = lower value
Respond with the bare value in %.

So what viability, T/C did CC(C)n1nc(-c2ccc3oc(N)nc3c2)c2c(N)ncnc21 + CCn1c(-c2cc(N3CCN(C)CC3)cnc2C(C)OC)c2c3cc(ccc31)-c1csc(n1)CC(NC(=O)C1CC1C)C(=O)N1CCCC(N1)C(=O)OCC(C)(C)C2 get with NCI-H929 complex spheroids, viability % test/control?
119

Continue with O=C(c1ccc(F)c(F)c1Nc1ccc(I)cc1F)N1CC(O)([C@@H]2CCCCN2)C1 + CCn1c(-c2cccnc2C(C)OC)c2c3cc(ccc31)N1CCOC(CC(NC(=O)C(C(C)C)N(C)C(=O)C3(F)CCN(C(=O)C#CC(C)(C)N(C)C)CC3)C(=O)N3CCCC(N3)C(=O)OCC(C)(C)C2)C1
97.2

# iterate: O=C(c1ccc(F)c(F)c1Nc1ccc(I)cc1F)N1CC(O)([C@@H]2CCCCN2)C1 + CCn1c(-c2cc(N3CCN(C)CC3)cnc2C(C)OC)c2c3cc(ccc31)-c1csc(n1)CC(NC(=O)C1CC1C)C(=O)N1CCCC(N1)C(=O)OCC(C)(C)C2
110

Next compound: C=CC(=O)Nc1cc(Nc2nccc(-c3cn(C)c4ccccc34)n2)c(OC)cc1N(C)CCN(C)C + CCn1c(-c2cccnc2C(C)OC)c2c3cc(ccc31)N1CCOC(CC(NC(=O)C(C(C)C)N(C)C(=O)C3(F)CCN(C(=O)C#CC(C)(C)N(C)C)CC3)C(=O)N3CCCC(N3)C(=O)OCC(C)(C)C2)C1
99.2
